# Species: Homo sapiens
# Experimental Protocol: Selectivity index, ratio of IC50 for human Clk2 to IC50 for human Clk1 by phosphoimager analysis
Reported Property: Ratio IC50

Input Smiles	Ratio IC50
COc1ccc2sc(C(=O)NC(=O)c3cc(F)ccc3OC)cc2c1	13.6

P: COc1ccc2sc(C(=O)NC(=O)c3cc(Cl)ccc3OC)cc2c1
Q: COc1ccc2sc(C(=O)NC(=O)c3cccc(F)n3)cc2c1
Incoming: Parameter check: reported Ratio IC50 is higher for which label, P or Q ? Answer with the label corresponding to your selection.
Outgoing: P

* * *

# Target Desc: Dual specificity protein kinase CLK1 (Homo sapiens)
# Sequence (P49759 whole entry, looked up, the tested form may be a part): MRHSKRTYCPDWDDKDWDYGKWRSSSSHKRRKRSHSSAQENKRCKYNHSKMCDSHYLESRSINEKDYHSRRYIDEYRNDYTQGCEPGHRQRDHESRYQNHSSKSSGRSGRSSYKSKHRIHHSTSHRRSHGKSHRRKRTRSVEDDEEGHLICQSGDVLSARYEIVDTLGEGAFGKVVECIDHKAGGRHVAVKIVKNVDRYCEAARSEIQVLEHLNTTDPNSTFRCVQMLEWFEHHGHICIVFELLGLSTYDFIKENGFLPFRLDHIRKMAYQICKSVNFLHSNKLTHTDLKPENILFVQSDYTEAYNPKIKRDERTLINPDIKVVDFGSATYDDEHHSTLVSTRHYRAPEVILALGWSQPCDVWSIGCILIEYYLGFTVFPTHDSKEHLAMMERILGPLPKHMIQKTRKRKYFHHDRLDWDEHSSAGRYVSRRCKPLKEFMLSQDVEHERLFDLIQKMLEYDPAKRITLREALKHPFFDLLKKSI
# Experimental Protocol: Inhibition of human recombinant GST-tagged Clk1 (129 to 484 residues) expressed in Escherichia coli expression system at 100 nM using GRSRSRSRSRSRSRS peptide as substrate incubated for 15 mins in presence of ATP by phosphoimager analysis relative to control
Reported Property: inhibition (%)

// solved cases for inhibition follow
Input Smiles	Unit	inhibition
COc1ccc2sc(C(=O)NC(=O)c3ccno3)cc2c1	%	12.1
COc1ccc2sc(C(=O)NC(=O)c3ccc(C)cc3OC)cc2c1	%	50.9
COc1ccc2sc(C(=O)NC(=O)c3ccccc3F)cc2c1	%	16.5
COc1ccc2sc(C(=O)NC(=O)c3c(OC)cccc3OC)cc2c1	%	12.2

I: COc1ccc2sc(C(=O)NC(=O)c3ccc(OC)c(OC)c3)cc2c1
II: COc1ccc2sc(C(=O)NC(=O)c3ccc(OC)c(F)c3)cc2c1
Incoming: Compare inhibition: is it lower for I or for II ? The response must carry the label of the picked entry.
Outgoing: II

The reported numbers originate from ChEMBL document CHEMBL5113421.
